Source of measurements: PubChem BioAssay (NCI)

# System: MDA-MB-468 breast
# Measurement notes: NCI tumour cell line growth inhibition, 48 h
Quantity kind: TGI (µM)
Number in µM, nothing else.

{"columns": ["Compound string", "Tested system", "TGI [µM]"],
 "data": [
  ["OB([O][Hg][c]1ccccc1)[O][Hg][c]1ccccc1", "MDA-MB-468 breast", 0.303],
  ["CS(=O)(=O)c1nccc(-c2c(-c3ccc(F)c(OCCc4ccc(F)cc4)c3)nc3sccn23)n1", "MDA-MB-468 breast", 3.53],
  ["O=C1C=C[C@]2(C[C@@H](c3cccc(C(F)(F)F)c3)O[C@@H](c3cccc(C(F)(F)F)c3)O2)O1", "MDA-MB-468 breast", 3.59]
]}

Let us move to another entry and its TGI.
Form field TGI, entry O=[N+]([O-])c1ccc(N/N=C\c2cc(Cl)ccc2O)nc1 : 7.25
